TARGET DESC: Bcl-2-like protein 1 (Homo sapiens, UniProt Q07817)
Sequence (Q07817 whole entry): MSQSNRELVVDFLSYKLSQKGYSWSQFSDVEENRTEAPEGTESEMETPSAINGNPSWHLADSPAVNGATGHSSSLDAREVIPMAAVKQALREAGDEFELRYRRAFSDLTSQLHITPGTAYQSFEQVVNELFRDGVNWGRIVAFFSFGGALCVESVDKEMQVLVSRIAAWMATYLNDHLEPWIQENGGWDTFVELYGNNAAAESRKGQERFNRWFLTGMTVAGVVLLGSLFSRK
ASSAY METHOD TEXT: Fluorescence Polarization (FP) Assay and FL5.12 Cellular Assay
REPORTED CONDITIONS: pH 7.4; 25 °C
PARAMETER MEASURED: Ki (nM)
Could you give me the number in nM? Just the number is fine.

Req: Item CCCCC1(OC)CCN(c2ccc(C(=O)NS(=O)(=O)c3ccc(N[C@H](CCN(C)C)CSc4ccccc4)c([N+](=O)[O-])c3)cc2)CC1 has what recorded Ki?
Resp: 1.3

###

TARGET DESC: Bcl-2-like protein 1 (Homo sapiens, UniProt Q07817)
ASSAY METHOD TEXT: Fluorescence Polarization (FP) Assay and FL5.12 Cellular Assay
REPORTED CONDITIONS: pH 7.4; 25 °C
PARAMETER MEASURED: IC50 (nM)
The answer is to be given in nM; state only the numeric part.

Req: For the compound CCCCC1(OC)CCN(c2ccc(C(=O)NS(=O)(=O)c3ccc(N[C@H](CCN(C)C)CSc4ccccc4)c([N+](=O)[O-])c3)cc2)CC1 , what IC50 is on record?
Resp: 312

###

ASSAY METHOD TEXT: The binding affinities (Ki) of compounds were determined using fluorescence polarization assays (FPA) that measure their ability to competitively displace a Bad-derived peptide from Bcl-xL. Compound efficacy (EC50) in a cellular context was evaluated by testing their ability to reverse the protection from cytokine w
Measured pEC50 by item
Please note pEC50 is a logarithmic value: minus log10 of concentration in mol/L. Answer with that number alone.

See these solved cases before continuing.
>>> reported_value("CN(C)CC[C@H](CSc1ccccc1)Nc1ccc(S(=O)(=O)NC(=O)c2ccc(N3CCC(=Cc4ccc(C(F)(F)F)cc4)CC3)cc2)cc1[N+](=O)[O-]")
5.44
>>> reported_value("CN(C)CC[C@H](CSc1ccccc1)Nc1ccc(S(=O)(=O)NC(=O)c2ccc(N3CCN(Cc4ccccc4)CC3)cc2)cc1[N+](=O)[O-]")
5.77

Req: Recorded pEC50 for COC1(Cc2ccccc2Br)CCN(c2ccc(C(=O)NS(=O)(=O)c3ccc(N[C@H](CCN(C)C)CSc4ccccc4)c([N+](=O)[O-])c3)cc2)CC1 , please?
Resp: 6.70

Req: // pEC50 lookup, key: COC1(Cc2ccc(-c3ccccc3)cc2)CCN(c2ccc(C(=O)NS(=O)(=O)c3ccc(N[C@H](CCN(C)C)CSc4ccccc4)c([N+](=O)[O-])c3)cc2)CC1
Resp: 5.96

Req: What does the record list as pEC50 for CN(C)CC[C@H](CSc1ccccc1)Nc1ccc(S(=O)(=O)NC(=O)c2ccc(N3CCC(=Cc4ccc(Cl)cc4)CC3)cc2)cc1[N+](=O)[O-] ?
Resp: 5.93

###

ASSAY METHOD TEXT: The binding affinities (Ki) of compounds were determined using fluorescence polarization assays (FPA) that measure their ability to competitively displace a Bad-derived peptide from Bcl-xL. Compound efficacy (EC50) in a cellular context was evaluated by testing their ability to reverse the protection from cytokine w
REPORTED CONDITIONS: pH 7.4
pEC50: recorded values
Field pEC50 (float): negative decimal logarithm of the concentration in molar.

>>> reported_value("CN(C)CC[C@H](CSc1ccccc1)Nc1ccc(S(=O)(=O)NC(=O)c2ccc(N3CCC(=Cc4ccc(F)cc4)CC3)cc2)cc1[N+](=O)[O-]")
6.42
>>> reported_value("CN(C)CC[C@H](CSc1ccccc1)Nc1ccc(S(=O)(=O)NC(=O)c2ccc(N3CCN(Cc4ccccc4)CC3)cc2)cc1[N+](=O)[O-]")
5.96

Let us examine a further case.
Req: Fill in: pEC50 of CN(C)CC[C@H](CSc1ccccc1)Nc1ccc(S(=O)(=O)NC(=O)c2ccc(N3CCN(C(=O)c4ccccc4)CC3)cc2)cc1[N+](=O)[O-] is ___
Resp: 4.84

###

Each item that follows carries a reported EC50.
ASSAY METHOD TEXT: The binding affinities (Ki) of compounds were determined using fluorescence polarization assays (FPA) that measure their ability to competitively displace a Bad-derived peptide from Bcl-xL. Compound efficacy (EC50) in a cellular context was evaluated by testing their ability to reverse the protection from cytokine w
Return type: number; implicit unit nM.

>>> reported_value("COC1(CC(C)C)CCN(c2ccc(C(=O)NS(=O)(=O)c3ccc(N[C@H](CCN(C)C)CSc4ccccc4)c([N+](=O)[O-])c3)cc2)CC1")
700

Lab note: next compound to report on.
Req: Using the record for COC1(Cc2ccc(Cl)cc2)CCN(c2ccc(C(=O)NS(=O)(=O)c3ccc(N[C@H](CCN(C)C)CSc4ccccc4)c([N+](=O)[O-])c3)cc2)CC1 , report its EC50.
Resp: 500

###

ASSAY METHOD TEXT: The binding affinities (Ki) of compounds were determined using fluorescence polarization assays (FPA) that measure their ability to competitively displace a Bad-derived peptide from Bcl-xL. Compound efficacy (EC50) in a cellular context was evaluated by testing their ability to reverse the protection from cytokine w
PARAMETER MEASURED: EC50 (nM)
Just the number in nM, nothing appended.

>>> reported_value("CN(C)CC[C@H](CSc1ccccc1)Nc1ccc(S(=O)(=O)NC(=O)c2ccc(N3CCC(C)(C)CC3)cc2)cc1[N+](=O)[O-]")
2200
>>> reported_value("CN(C)CC[C@H](CSc1ccccc1)Nc1ccc(S(=O)(=O)NC(=O)c2ccc(N3CCC(=Cc4ccccc4C(F)(F)F)CC3)cc2)cc1[N+](=O)[O-]")
210

Please examine the following record next.
Req: Would you kindly share the measured EC50 for CN(C)CC[C@H](CSc1ccccc1)Nc1ccc(S(=O)(=O)NC(=O)c2ccc(N3CCC(=Cc4ccccc4F)CC3)cc2)cc1[N+](=O)[O-] ?
Resp: 350

###

ASSAY METHOD TEXT: The binding affinities (Ki) of compounds were determined using fluorescence polarization assays (FPA) that measure their ability to competitively displace a Bad-derived peptide from Bcl-xL. Compound efficacy (EC50) in a cellular context was evaluated by testing their ability to reverse the protection from cytokine w
REPORTED CONDITIONS: pH 7.4
pEC50: −log10 of the molar value.
Here the recorded pEC50 is given for each entry.

Check out these entries, answers already filled in.
>>> reported_value("Cc1ccc(S(=O)(=O)N2CCN(c3ccc(C(=O)NS(=O)(=O)c4ccc(N[C@H](CCN(C)C)CSc5ccccc5)c([N+](=O)[O-])c4)cc3)CC2)cc1")
"< 4.70"
>>> reported_value("CC1OC2(CCN(c3ccc(C(=O)NS(=O)(=O)c4ccc(N[C@H](CCN(C)C)CSc5ccccc5)c([N+](=O)[O-])c4)cc3)CC2)N(Cc2ccccc2)C1=O (stereo partly drawn)")
"< 4.70"

Req: Could you tell me which pEC50 is on file for CN(C)CC[C@H](CSc1ccccc1)Nc1ccc(S(=O)(=O)NC(=O)c2ccc(N3CCN(C(=O)Nc4ccccc4)CC3)cc2)cc1[N+](=O)[O-] ?
Resp: < 4.30
